test_details: In vivo pharmacokinetics, cynomolgus monkey
Design: species or system Cynomolgus monkeys
cond: both sexes, plasma, oral 3.0 mg/kg, read-out: CYNO PO AUC
Quick reference for AUC among some compounds

Here is how some compounds turned out for AUC.
COC(=O)N[C@@H]1CC[C@@H](n2c(=O)n(C)c3cnc4[nH]c(-c5cn(C)nc5OC)c(-c5ccc(F)cc5)c4c32)C1 [Example 1]    > 1.5 µM·h
COC(=O)N[C@@H]1CC[C@@H](n2c(=O)n(C)c3cnc4[nH]c(-c5cn(C)nc5OC)c(-c5ccc(OC)c(F)c5)c4c32)C1 [Example 4]    > 1.5 µM·h

Exercise: Report AUC for [2H]C([2H])([2H])n1cc(-c2[nH]c3ncc4c(c3c2-c2ccc(C(C)(C)O)cc2)n([C@@H]2CC[C@@H](NC(=O)OC)C2)c(=O)n4C([2H])([2H])[2H])c(F)n1 [Example 10] please.
Solution: 0.5 to 1.5 µM·h

###

Please consider the recorded pIC50 for FLT3 (Homo sapiens) in what follows.
pIC50: −log10 of the molar value.

COc1nn(C)cc1-c1[nH]c2ncc3c(c2c1-c1ccc2c(cnn2C)c1)n([C@H]1CC[C@@H](CC#N)CC1)c(=O)n3C [E, reference compound]    5.90 to 6.60
COC(=O)N[C@@H]1CC[C@@H](n2c(=O)n(C)c3cnc4[nH]c(-c5cn(C)nc5OC)c(-c5ccccc5)c4c32)C1    < 5.60
COC(=O)N[C@@H]1CC[C@@H](n2c(=O)n(C)c3cnc4[nH]c(-c5cn(C)nc5OC)c(-c5ccc(F)cc5)c4c32)C1    < 5.60

Now consider the entry below.
Exercise: Provide value of pIC50 for this record tested with FLT3 (Homo sapiens): COC(=O)N[C@@H]1CC[C@@H](n2c(=O)n(C)c3cnc4[nH]c(-c5cn(C)nc5OC)c(-c5cccc(F)c5)c4c32)C1
Sequence (P36888 27-993, species assumed): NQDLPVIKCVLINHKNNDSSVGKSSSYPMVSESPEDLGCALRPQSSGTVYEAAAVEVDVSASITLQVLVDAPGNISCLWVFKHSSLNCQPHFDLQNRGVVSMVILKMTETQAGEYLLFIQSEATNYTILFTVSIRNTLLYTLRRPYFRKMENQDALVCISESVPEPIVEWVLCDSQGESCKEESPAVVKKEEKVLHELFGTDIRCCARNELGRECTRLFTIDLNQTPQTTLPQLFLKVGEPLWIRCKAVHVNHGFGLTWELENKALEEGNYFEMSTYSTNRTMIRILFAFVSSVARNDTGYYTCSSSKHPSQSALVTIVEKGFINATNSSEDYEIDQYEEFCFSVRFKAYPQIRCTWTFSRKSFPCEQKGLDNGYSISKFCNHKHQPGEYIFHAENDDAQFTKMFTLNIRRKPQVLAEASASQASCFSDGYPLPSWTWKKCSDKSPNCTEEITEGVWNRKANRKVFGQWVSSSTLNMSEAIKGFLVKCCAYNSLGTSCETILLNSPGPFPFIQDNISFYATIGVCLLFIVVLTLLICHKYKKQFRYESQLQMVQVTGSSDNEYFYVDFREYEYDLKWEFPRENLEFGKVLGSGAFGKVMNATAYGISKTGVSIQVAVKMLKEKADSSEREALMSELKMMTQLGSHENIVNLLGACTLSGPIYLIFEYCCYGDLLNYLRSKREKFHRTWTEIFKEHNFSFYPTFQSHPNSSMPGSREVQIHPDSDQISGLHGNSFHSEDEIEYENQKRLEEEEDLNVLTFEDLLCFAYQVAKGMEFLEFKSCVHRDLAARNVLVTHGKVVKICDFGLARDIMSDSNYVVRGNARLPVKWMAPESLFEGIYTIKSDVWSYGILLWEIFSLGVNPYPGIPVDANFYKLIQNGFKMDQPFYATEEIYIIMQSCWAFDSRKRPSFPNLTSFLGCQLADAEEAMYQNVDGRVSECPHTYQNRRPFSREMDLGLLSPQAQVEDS
Solution: < 5.60

Reference for the values: patent US12084430B2
